Target: Nav1.8 ion channel stably expressed on HEK293 cells (Homo sapiens, UniProt Q9Y5Y9)
Sequence (Q9Y5Y9 whole entry): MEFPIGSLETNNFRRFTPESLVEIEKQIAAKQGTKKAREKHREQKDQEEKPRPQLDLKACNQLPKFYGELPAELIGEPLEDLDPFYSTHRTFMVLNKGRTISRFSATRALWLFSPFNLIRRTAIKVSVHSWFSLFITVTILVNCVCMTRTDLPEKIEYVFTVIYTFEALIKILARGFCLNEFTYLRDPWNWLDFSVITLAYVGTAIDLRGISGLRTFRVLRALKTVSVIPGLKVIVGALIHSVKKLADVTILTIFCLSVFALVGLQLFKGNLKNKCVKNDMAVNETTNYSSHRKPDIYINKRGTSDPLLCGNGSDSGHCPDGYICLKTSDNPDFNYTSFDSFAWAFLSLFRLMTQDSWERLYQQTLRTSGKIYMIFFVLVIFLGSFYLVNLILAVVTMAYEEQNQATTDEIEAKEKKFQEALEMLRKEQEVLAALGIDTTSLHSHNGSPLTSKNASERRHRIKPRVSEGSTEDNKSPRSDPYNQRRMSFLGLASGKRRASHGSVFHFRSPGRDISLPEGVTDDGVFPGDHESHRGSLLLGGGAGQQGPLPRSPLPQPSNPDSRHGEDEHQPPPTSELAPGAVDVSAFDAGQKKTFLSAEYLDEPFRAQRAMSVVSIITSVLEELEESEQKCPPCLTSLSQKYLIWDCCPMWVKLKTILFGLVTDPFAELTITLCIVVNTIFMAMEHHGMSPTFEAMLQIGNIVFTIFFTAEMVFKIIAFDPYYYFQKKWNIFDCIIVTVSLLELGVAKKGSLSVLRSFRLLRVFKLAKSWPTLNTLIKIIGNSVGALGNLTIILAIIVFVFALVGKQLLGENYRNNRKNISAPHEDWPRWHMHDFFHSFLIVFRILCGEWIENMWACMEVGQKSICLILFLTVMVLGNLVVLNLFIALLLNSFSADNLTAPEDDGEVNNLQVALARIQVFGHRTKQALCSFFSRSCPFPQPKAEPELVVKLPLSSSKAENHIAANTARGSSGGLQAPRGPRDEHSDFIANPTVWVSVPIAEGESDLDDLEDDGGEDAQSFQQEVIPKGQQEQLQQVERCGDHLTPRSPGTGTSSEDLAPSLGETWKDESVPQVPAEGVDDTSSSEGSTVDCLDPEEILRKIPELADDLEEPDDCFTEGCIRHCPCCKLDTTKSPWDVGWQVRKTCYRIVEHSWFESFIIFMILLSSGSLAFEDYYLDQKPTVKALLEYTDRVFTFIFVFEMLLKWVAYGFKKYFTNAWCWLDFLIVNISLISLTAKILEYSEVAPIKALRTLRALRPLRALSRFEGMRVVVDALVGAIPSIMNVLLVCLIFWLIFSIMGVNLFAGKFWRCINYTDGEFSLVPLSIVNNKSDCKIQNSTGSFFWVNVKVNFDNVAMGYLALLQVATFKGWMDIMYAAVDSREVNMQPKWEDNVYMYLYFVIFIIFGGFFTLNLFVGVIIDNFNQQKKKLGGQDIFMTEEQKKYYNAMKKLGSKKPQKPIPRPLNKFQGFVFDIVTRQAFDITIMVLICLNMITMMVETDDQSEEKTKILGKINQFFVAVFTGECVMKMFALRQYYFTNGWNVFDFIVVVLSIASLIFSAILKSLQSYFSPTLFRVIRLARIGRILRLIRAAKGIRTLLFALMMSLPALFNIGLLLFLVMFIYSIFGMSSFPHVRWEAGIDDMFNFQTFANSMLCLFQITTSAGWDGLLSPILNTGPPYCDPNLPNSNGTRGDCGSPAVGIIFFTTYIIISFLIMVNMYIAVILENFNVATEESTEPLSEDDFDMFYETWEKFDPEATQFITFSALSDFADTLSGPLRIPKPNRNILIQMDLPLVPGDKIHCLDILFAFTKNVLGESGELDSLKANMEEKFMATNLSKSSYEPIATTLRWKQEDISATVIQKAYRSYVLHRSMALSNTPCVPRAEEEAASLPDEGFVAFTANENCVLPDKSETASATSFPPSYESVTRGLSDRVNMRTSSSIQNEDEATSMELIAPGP
Experiment: Inhibitory activity on Nav1.8, manual patch clamp
Settings: resting, clamped at -80 mV, 1 μM TTX, read-out: IC50 on inhibiting the Nav1.8 channel activity
Simple rule here: IC50 less than 20 nM is class 1, otherwise class 0.

### Prompt Item Cc1cc(F)ccc1Oc1ccc(Cl)cc1C(=O)Nc1cn[nH]c(=O)c1 [Example 23] : IC50 beneath 20 nM, strictly?
### Response class 0

### Prompt Answer whether the compound COc1cc(F)ccc1Oc1cc(C(F)(F)F)ccc1C(=O)Nc1cn[nH]c(=O)c1 [Example 8] has IC50 strictly less than 20 nM
### Response class 0

### Prompt Please check: IC50 for Cc1cc(F)ccc1Oc1cc(Cl)c(F)cc1C(=O)Nc1cn[nH]c(=O)c1 [Example 19] , strictly under 20 nM or not?
### Response class 0

### Prompt Item Cc1cc(F)ccc1Oc1cc(Cl)c(Cl)cc1C(=O)Nc1cn[nH]c(=O)c1 [Example 3] : IC50 beneath 20 nM, strictly?
### Response class 1

### Prompt Is it true that IC50 reported for Cc1ccccc1Oc1cc(C(F)(F)F)c(Cl)cc1C(=O)Nc1cn[nH]c(=O)c1 [Example 30] is less than 20 nM?
### Response class 1

### Prompt Below 20 nM on IC50? Entry COc1cc(F)ccc1Oc1ccc(OC(F)(F)F)cc1C(=O)Nc1cn[nH]c(=O)c1 [Example 22]
### Response class 0

### Prompt Item COc1cc(F)ccc1Oc1cc(Cl)c(Cl)cc1C(=O)Nc1cn[nH]c(=O)c1 [Example 1] : IC50 beneath 20 nM, strictly?
### Response class 1

### Prompt Lab note: IC50 threshold 20 nM. Does this compound come in strictly under it? O=C(Nc1cn[nH]c(=O)c1)c1cc(Cl)c(C(F)(F)F)cc1Oc1ccc(F)cc1OC1CCCC1 [Example 40]
### Response class 1

### Prompt Criterion: IC50 strictly below 20 nM. Is it met by O=C(Nc1cn[nH]c(=O)c1)c1cc(Cl)c(C(F)(F)F)cc1Oc1ccc(F)cc1Br [Example 43] ?
### Response class 1

### Prompt Consider Cc1cc(F)ccc1Oc1cc(C(F)(F)F)c(Cl)cc1C(=O)Nc1cn[nH]c(=O)c1 [Example 2] . Does its IC50 lie strictly below 20 nM?
### Response class 1

### Prompt Consider CCOc1cc(F)ccc1Oc1cc(C(F)(F)F)c(Cl)cc1C(=O)Nc1cn[nH]c(=O)c1 [Example 32] . Does its IC50 lie strictly below 20 nM?
### Response class 1

### Prompt Hi there! Is IC50 for Cc1cc(OC(F)(F)F)ccc1Oc1cc(C(F)(F)F)ccc1C(=O)Nc1cn[nH]c(=O)c1 [Example 6] below 20 nM, do you know?
### Response class 0

### Prompt is_below(IC50, 20 nM) for Cc1cc(Oc2ccc(F)cc2C)c(C(=O)Nc2cn[nH]c(=O)c2)cc1Cl [Example 28] ?
### Response class 1

### Prompt Here's an entry: O=C(Nc1cn[nH]c(=O)c1)c1cc(Cl)c(C(F)(F)F)cc1Oc1ccc(F)c2c1CCC2 [Example 39] . Is its IC50 below 20 nM?
### Response class 1

### Prompt Does the reported IC50 of Cc1cc(F)ccc1Oc1cc(Cl)ccc1C(=O)Nc1cn[nH]c(=O)c1 [Example 20] stay below 20 nM?
### Response class 0

### Prompt A record lists CC(C)Oc1cc(F)ccc1Oc1cc(C(F)(F)F)c(Cl)cc1C(=O)Nc1cn[nH]c(=O)c1 [Example 42] . Is its IC50 below 20 nM?
### Response class 1

### Prompt Please indicate whether the reported IC50 of Cc1cc(F)ccc1Oc1cc(C(F)(F)C(F)(F)F)ccc1C(=O)Nc1cn[nH]c(=O)c1 [Example 5] is strictly below 20 nM.
### Response class 0

### Prompt # check: IC50 < 20 nM for O=C(Nc1cn[nH]c(=O)c1)c1cc(Cl)c(C(F)(F)F)cc1Oc1ccc(F)cc1F [Example 46]
### Response class 1

### Prompt Record O=C(Nc1cn[nH]c(=O)c1)c1cc(Cl)c(C(F)(F)F)cc1Oc1ccc(F)cc1OC(F)F [Example 37] : is its IC50 strictly below 20 nM?
### Response class 1

### Prompt Is IC50 strictly under 20 nM for the entry COc1cc(F)ccc1Sc1cc(C(F)(F)F)c(Cl)cc1C(=O)Nc1cn[nH]c(=O)c1 [Example 17] ?
### Response class 1

### Prompt Identify whether the compound CCc1cc(F)ccc1Oc1cc(C(F)(F)F)c(Cl)cc1C(=O)Nc1cn[nH]c(=O)c1 [Example 36] records IC50 below 20 nM.
### Response class 1

### Prompt Please state whether IC50 is below 20 nM for Cc1cc(F)ccc1Oc1cc(C(F)(F)F)ccc1C(=O)Nc1cn[nH]c(=O)c1 [Example 9]
### Response class 0

### Prompt Decide: IC50 of [2H]C([2H])([2H])c1cc(F)ccc1Oc1cc(C(F)(F)F)c(Cl)cc1C(=O)Nc1cn[nH]c(=O)c1 [Example 44] strictly below 20 nM?
### Response class 1

### Prompt Please check: IC50 for O=C(Nc1cn[nH]c(=O)c1)c1cc(Cl)c(C(F)(F)F)cc1Oc1ccc(F)cc1C1CC1 [Example 31] , strictly under 20 nM or not?
### Response class 1

### Prompt Does the reported IC50 of Cc1cc(F)ccc1Oc1cc(C(F)(F)F)cc(C(F)(F)F)c1C(=O)Nc1cn[nH]c(=O)c1 [Example 29] stay below 20 nM?
### Response class 0

### Prompt Does the reported IC50 of COc1cc(F)ccc1Oc1cc(C(F)(F)F)c(Cl)cc1C(=O)Nc1cn[nH]c(=O)c1 [Example 11] stay below 20 nM?
### Response class 1

### Prompt Check if IC50 falls below 20 nM for COc1cc(F)ccc1Oc1cc(Cl)ccc1C(=O)Nc1cn[nH]c(=O)c1 [Example 21] .
### Response class 0

### Prompt Determine if Cc1cc(F)ccc1Oc1cc(Cl)c(C(F)(F)F)cc1C(=O)Nc1cn[nH]c(=O)c1 [Example 27] shows IC50 strictly lower than 20 nM.
### Response class 1

### Prompt Find out if reported IC50 for COc1cc(F)ccc1Oc1cc(Cl)c(F)cc1C(=O)Nc1cn[nH]c(=O)c1 [Example 18] is less than 20 nM
### Response class 0

### Prompt # TODO verify IC50 < 20 nM strictly for this compound: Cc1cc(F)ccc1Cc1cc(C(F)(F)F)c(Cl)cc1C(=O)Nc1cn[nH]c(=O)c1 [Example 13]
### Response class 1

### Prompt For O=C(Nc1cn[nH]c(=O)c1)c1cc(Cl)c(C(F)(F)F)cc1Oc1ccc(F)cc1OC1CC1 [Example 12] , is the recorded IC50 below the cut-off of 20 nM?
### Response class 1

### Prompt Threshold test, IC50 < 20 nM: [2H]C([2H])([2H])Oc1cc(F)ccc1Oc1cc(C(F)(F)F)c(Cl)cc1C(=O)Nc1cn[nH]c(=O)c1 [Example 35]
### Response class 1
